Test: Quantitative cytotoxicity in Vero cells, crystal violet staining of EC50 plates
Conditions: African green monkey
Let's look at some compounds and their measured CC50 at 1 day.
REPORTED_PROPERTY: CC50 at 1 day

[
  {
    "COMPOUND": "CC(C)Sc1ccc(SC(C)C)c(O)c(=O)c1O",
    "RESULT": "56.5 µM"
  },
  {
    "COMPOUND": "Cc1cc(O)c(=O)c(O)cc1C(=O)c1cccs1",
    "RESULT": "217 µM"
  },
  {
    "COMPOUND": "Cc1cc(O)c(=O)c(O)cc1C(=O)NCc1ccc(-c2ccccc2)cc1",
    "RESULT": "> 300 µM"
  },
  {
    "COMPOUND": "Cc1cc(O)c(=O)c(O)cc1C(=O)c1ccc(-c2ccccc2)cc1",
    "RESULT": "248 µM"
  },
  {
    "COMPOUND": "Cc1ccc(Sc2cccc(O)c(=O)c2O)cc1",
    "RESULT": "> 300 µM"
  },
  {
    "COMPOUND": "Cc1cc(O)c(=O)c(O)cc1-c1ccccc1",
    "RESULT": "> 250 µM"
  },
  {
    "COMPOUND": "Cc1cc(O)c(=O)c(O)cc1C(=O)N1CCN(C(c2ccc(F)cc2)c2ccc(F)cc2)CC1",
    "RESULT": "54.7 µM"
  },
  {
    "COMPOUND": "CC(C)c1ccc(O)c(=O)c(O)c1",
    "RESULT": "> 250 µM"
  },
  {
    "COMPOUND": "C/C(=N\\c1ccc(C(F)(F)F)cc1)c1c(C)cc(=O)n(O)c1O",
    "RESULT": "> 120 µM"
  },
  {
    "COMPOUND": "Cc1cc(O)c(=O)c(O)cc1C(=O)Nc1ccccc1",
    "RESULT": "> 250 µM"
  },
  {
    "COMPOUND": "O=c1c(O)ccc(-c2ccco2)cc1O",
    "RESULT": "> 250 µM"
  },
  {
    "COMPOUND": "Cc1cc(O)c(=O)c(O)cc1C(=O)c1ccc(-c2ccncc2)cc1",
    "RESULT": "> 250 µM"
  },
  {
    "COMPOUND": "Cc1cc(O)c(=O)c(O)cc1C(=O)c1ccccc1",
    "RESULT": "> 250 µM"
  },
  {
    "COMPOUND": "CCCCNC(=O)c1cc(O)c(=O)c(O)cc1C",
    "RESULT": "> 120 µM"
  },
  {
    "COMPOUND": "CC1=CC(O)N(O)C(O)=C1/C(C)=N/c1ccccc1N (centres unmarked)",
    "RESULT": "> 250 µM"
  },
  {
    "COMPOUND": "O=C1C=CC(=O)c2ccccc21",
    "RESULT": "42.9 µM"
  },
  {
    "COMPOUND": "C/C(=N\\c1cccc(Oc2ccccc2)c1)c1c(C)cc(=O)n(O)c1O",
    "RESULT": "> 120 µM"
  },
  {
    "COMPOUND": "Cc1cc(O)c(=O)c(O)cc1C(=O)c1cccc(Br)c1",
    "RESULT": "170 µM"
  },
  {
    "COMPOUND": "CCCCSc1ccc(SCCCC)c(O)c(=O)c1O",
    "RESULT": "22.1 µM"
  },
  {
    "COMPOUND": "Cc1cc(O)c(=O)c(O)cc1C(=O)N1CCCCC1",
    "RESULT": "> 250 µM"
  }
]
